- Read-out: Interferon-gamma inducible Protein 10 (IP10), CXCL10 (gene 3627)
- procedure summary: BSK_hDFCGF_IP10: BioMAP Diversity Plus: hDFCGF Assay for Interferon-gamma inducible Protein 10 (IP10) Biomarker Activity (AID 2283053)
- run parameters: primary human foreskin fibroblasts; actives raise or lower the signal
Activity calls are given as the source filed them. Rule for the calls: active = hit-call score of the fitted dose curve at least 0.9, where 1 is the maximum; inactive = score below 0.9.
Valid outcomes are listed here; reply with one: Y = active, N = inactive

Call for entry "CCCCCCCCCC[N+](C)(C)CCCCCCCCCC" :
Y

Quick one: "Cc1cccc(C)c1N"
N

Quick one: "Oc1ccc(Cl)cc1Cl"
N

Quick one: "Sc1ccccc1"
N

Quick one: "c1ccc(-c2ccccc2)cc1"
N

Quick one: "Clc1ccc(C(Cl)(Cl)Cl)cc1"
N

Quick one: "Nc1ccc(-c2ccc(N)cc2)cc1"
N

Quick one: "CCCCCCCCOC(=O)c1ccccc1C(=O)OCCCCCCCC"
N

----------
- procedure summary: LTEA_HepaRG_LDH_cytotoxicity: Cytotoxicity Assessment in the Life Technologies and Expression Analysis (LTEA) Assay (AID 2283563)
Active and inactive are the calls of the source. The calls were made as follows: active = hit-call score of the fitted dose curve at least 0.9, where 1 is the maximum; inconclusive = response in the unintended direction; inactive = score below 0.9.
Valid outcomes are listed here; reply with one: active, inactive

Call for entry "COS(=O)(=O)OC" :
inactive

Quick one: "CCC(C)(c1ccc(O)cc1)c1ccc(O)cc1"
inactive

Quick one: "ClC1=C(Cl)[C@]2(Cl)[C@@H]3[C@@H]4C[C@@H]([C@H]5O[C@@H]45)[C@@H]3[C@@]1(Cl)C2(Cl)Cl"
inactive

Quick one: "ClC1=C(Cl)[C@]2(Cl)[C@@H]3[C@@H](Cl)[C@H]4O[C@H]4[C@@H]3C1(Cl)C2(Cl)Cl"
inactive

Quick one: "Cc1ccccc1CO[C@@H]1C[C@@]2(C(C)C)CC[C@]1(C)O2"
inactive

Quick one: "CCCCCCCCOC(=O)c1ccccc1C(=O)OCCCCCCCC"
inactive

Quick one: "Nn1cnnc1"
inactive

Quick one: "Oc1ccc(Cl)cc1Cl"
inactive

Quick one: "C[C@]12CCC(=O)C=C1CC[C@@H]1[C@@H]2CC[C@]2(C)C(=O)CC[C@@H]12"
inactive

Quick one: "O=C(NC(=O)c1cc(F)c(F)cc1Cl)Nc1cc(F)ccc1N1CCC(C(=O)O)CC1"
inactive

Quick one: CCC(C)c1cc([N+](=O)[O-])cc([N+](=O)[O-])c1O (configuration not stated)
active

Quick one: "CCSC(=O)N(CC)C1CCCCC1"
inactive

Quick one: Clc1ccc(C(c2ccccc2Cl)C(Cl)(Cl)Cl)cc1 (configuration not stated)
active

Quick one: "CCC(=O)O[C@H]1CC[C@H]2[C@@H]3CCC4=CC(=O)CC[C@]4(C)[C@H]3CC[C@]12C"
inactive

Quick one: "CCCN(CCC)N=O"
inactive

Quick one: "c1cc2ccc3cccc4ccc(c1)c2c34"
inactive

Quick one: "CCNc1nc(NC(C)C)nc(SC)n1"
inactive

Quick one: "CCCCCCCCCc1ccc(O)cc1"
inactive

Quick one: "Cc1ccc(O)c(C)c1"
inactive

Quick one: "Clc1ccc(Cl)cc1"
inactive

Quick one: "CCOP(=S)(OCC)SCSC(C)(C)C"
inactive

Quick one: "Cc1cccc([N+](=O)[O-])c1"
inactive

Quick one: "O=C(O)C(F)(F)C(F)(F)C(F)(F)C(F)(F)C(F)(F)C(F)(F)C(F)(F)C(F)(F)F"
active

Quick one: "Oc1ccc(C(c2ccc(O)cc2)(C(F)(F)F)C(F)(F)F)cc1"
active

Quick one: "COc1ccc(O)c(C(C)(C)C)c1"
inactive

Quick one: "C=CC(=O)NCNC(=O)C=C"
inactive

Quick one: "CC(c1ccc(O)cc1)(c1ccc(O)cc1)c1ccc(O)cc1"
active
